Target: YlxR (Bacillus subtilis)
Sequence: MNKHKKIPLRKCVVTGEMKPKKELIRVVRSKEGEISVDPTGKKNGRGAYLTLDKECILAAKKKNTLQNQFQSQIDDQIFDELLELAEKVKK
Experiment: EMSA
Conditions: 10 mM Tris-HCl pH 8.0, 100 mM KCl, 10 mM MgCl2, 1 mM DTT, 1 mM EDTA, 1 ug poly(dI-dC), 20 fmol probe in 20 ul, 15 min at 25 C; 6% native PAGE
Measured parameter: binding

Chain sequence	Measured parameter	Meas value
CTGGATGATATGGCAGAGTGGGTGTCAAAAATTAAATAAAAGAACTATTTTTCTCTTTATACATTCACAGGCCGCCGAGATGTTCTCGACAGCCTTTTATTTTTGACTGCTGCGTGCAGACCCGCATCAAAAGAAATAATTTCAAAATCATTTGCTTCAG (double strand) [PtrmK [-295/-135] Wt]	binding	binds
GGATATTCCAGCAAAATTCGATAAACTAGGAAGAGCACAAATAGGCATAAGCAGGGTTGAAAGGAGGTTTTGGTTC (double strand) [PthiL [-76/-1] Wt]	binding	binds
CTGGATGATATGGCAGAGTGGGTGTACCAAATTAAATAAAAGAACTATTTTTCTCTTTATACATTCACAGGCCGCCGAGATGTTCTCGACAGCCTTTTATTTTTGACTGCTGCGTGCAGACCCGCATCAAAAGAAATAATTTCAAAATCATTTGCTTCAG (double strand) [PtrmK [-295/-135] M1]	binding	binds
